Quick reference for pIC50 among some compounds
target: Melanin-concentrating hormone receptor 1 (Homo sapiens); experiment: Displacement of 125I-MCH from MCH-R1 expressed in IMR-32 cells
Sequence (Q99705 whole entry): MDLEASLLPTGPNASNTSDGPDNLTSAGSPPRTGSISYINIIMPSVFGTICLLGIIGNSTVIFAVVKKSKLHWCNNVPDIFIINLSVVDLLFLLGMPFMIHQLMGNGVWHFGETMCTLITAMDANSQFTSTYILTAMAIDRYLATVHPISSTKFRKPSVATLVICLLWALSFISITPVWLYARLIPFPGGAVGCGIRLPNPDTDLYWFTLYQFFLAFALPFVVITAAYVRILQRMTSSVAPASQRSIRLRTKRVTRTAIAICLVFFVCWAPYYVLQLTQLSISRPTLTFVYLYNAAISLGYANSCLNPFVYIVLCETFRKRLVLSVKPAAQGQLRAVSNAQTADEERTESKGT
// pIC50 is dimensionless: -log10 of concentration (M)

Entry CC(=O)Nc1ccc2c(c1)C(N1CCC(NC(=O)c3cc(=O)c4ccc(F)cc4o3)CC1)CC2 (stereo in doubt; 16) , pIC50 reported as 8.52

Entry O=C1COc2cc3c(cc2N1)C(N1CCC(NC(=O)c2cc(=O)c4ccc(F)cc4o2)CC1)CC3 (stereo unspecified) , pIC50 reported as 7.68

Entry O=C(NC1CCN(C2CCc3cc4oc(=O)[nH]c4cc32)CC1)c1cc(=O)c2ccc(F)cc2o1 (stereo unspecified) , pIC50 reported as 7.96

Entry CC(=O)Nc1ccc2c(c1)C(N1CCC(NC(=O)c3cc(=O)c4ccc(F)cc4o3)CC1)CC2 (single isomer, unassigned; (+)) , pIC50 reported as 5.59

Entry O=C(NC1CCN(C2CCc3c2ccc2c3OCO2)CC1)c1cc(=O)c2ccc(F)cc2o1 (stereo unspecified) , pIC50 reported as 7.12

Entry CC(=O)Nc1ccc2c(c1)C(N1CCC(NC(=O)c3cc(=O)c4ccc(F)cc4o3)CC1)CC2 (single isomer, unassigned; (-)) , pIC50 reported as 8.40

----------
The following are reported pIC50 results, target or system Voltage-gated inwardly rectifying potassium channel KCNH2 (Homo sapiens, UniProt Q12809).
// pIC50 is dimensionless: -log10 of concentration (M)

>>> print(df.to_string())
                                   compound  measure  value_observed
0  O=C(NC1CCN(C2CCc3cc4oc(=O)[nH]c4cc32)CC1)c1cc(=O)c2ccc(F)cc2o1 (stereo not drawn)    pIC50            4.60
1  O=C(NC1CCN(C2CCc3c2ccc2c3OCO2)CC1)c1cc(=O)c2ccc(F)cc2o1 (stereo not drawn)    pIC50            5.23

API: the following record is the query input.
Entry O=C1COc2cc3c(cc2N1)C(N1CCC(NC(=O)c2cc(=O)c4ccc(F)cc4o2)CC1)CC3 (stereo not drawn) , pIC50 reported as 4.84

----------
molecular target: Melanin-concentrating hormone receptor (Homo sapiens, UniProt Q969V1+Q99705); experiment: Inhibition of MCH-mediated calcium release in IMR-32 cells; type: functional, cell-based
Measure: log10 IC50 (log10 of the value in nM)
All values: base-10 log of IC50 in nM.

>>> df
                                   compound  value_observed
0  O=C1COc2cc3c(cc2N1)C(N1CCC(NC(=O)c2cc(=O)c4ccc(F)cc4o2)CC1)CC3 (stereo unspecified)            1.98

Entry O=C(NC1CCN(C2CCc3c2ccc2c3OCO2)CC1)c1cc(=O)c2ccc(F)cc2o1 (stereo unspecified) , log10 IC50 reported as 3.44

Entry CC(=O)Nc1ccc2c(c1)C(N1CCC(NC(=O)c3cc(=O)c4ccc(F)cc4o3)CC1)CC2 (stereo in doubt; 16) , log10 IC50 reported as 1.75

Entry CC(=O)Nc1ccc2c(c1)C(N1CCC(NC(=O)c3cc(=O)c4ccc(F)cc4o3)CC1)CC2 (single isomer, unassigned; (-)) , log10 IC50 reported as 1.41

Entry O=C(NC1CCN(C2CCc3cc4oc(=O)[nH]c4cc32)CC1)c1cc(=O)c2ccc(F)cc2o1 (stereo unspecified) , log10 IC50 reported as 2.24

----------
assay: Brain Cmax in DIO mice after 10 mg/kg peroral dose; assay type: ADME, organism-based; set-up: dose 10 mg/kg, route oral; conditions: mouse, po
Measure: Cmax (ng/g)
Provide only the numeric value, understood in ng/g.

Entry CC(=O)Nc1ccc2c(c1)C(N1CCC(NC(=O)c3cc(=O)c4ccc(F)cc4o3)CC1)CC2 (single isomer, unassigned; (+)) , Cmax reported as 17
